Reported εabs values for the following compounds.
Assay: UV-Vis absorption spectra
Type: physicochemical
Details: 20 uM in DMSO
Description: UV-Vis absorption spectra were recorded on a Varian Cary 50 UV-Vis Spectrophotometer (Agilent).

| structure notation | εabs |
| --- | --- |
| O=c1c(C#Cc2ccccc2)c1-c1ccccc1 | 32400 M⁻¹ cm⁻¹ |
| O=c1c(C#Cc2ccccc2)c(C#Cc2ccccc2)c1=O | 25500 M⁻¹ cm⁻¹ |
| O=c1c(-c2ccccc2)c1-c1ccccc1 | 28600 M⁻¹ cm⁻¹ |
| C(#Cc1ccccc1)c1ccccc1 | 32300 M⁻¹ cm⁻¹ |

These data points were gathered from patent US20230280275A1.
